Biological target: Rac1 (Homo sapiens, UniProt P63000)
Test: Competitive binding assay, [3H]GDP-loaded Rho protein titrated with 6-TGDP (FIG. 16A)
Design: made in house; host or cells: E. coli
Settings: calculated by compensation equation, read-out: trueKD for 6-TGDP
readout type: Kd (µM)
Lab book: enter the figure in µM, no units written.

Entry Nc1nc2c(ncn2[C@@H]2O[C@H](COP(=O)(O)OP(=O)(O)O)[C@@H](O)[C@H]2O)c(=S)[nH]1 [6-TGDP, 6-thioguanosine diphosphate] : reported Kd = ?
5.1

----------
Target: Ras (Homo sapiens, UniProt P01112)
Sequence (P01112 whole entry): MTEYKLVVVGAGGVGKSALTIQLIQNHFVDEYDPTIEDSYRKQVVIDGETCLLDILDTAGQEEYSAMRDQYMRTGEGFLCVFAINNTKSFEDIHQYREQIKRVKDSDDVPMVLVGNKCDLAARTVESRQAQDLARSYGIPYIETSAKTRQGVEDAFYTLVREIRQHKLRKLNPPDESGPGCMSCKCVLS
Experiment: [3H]GDP displacement of 6-TGDP from .NO2-treated 6-TGDP-loaded GTPase with/without DTT (FIG. 13B)
Type: binding
Conditions: with DTT 10 mM; 6-TGDP-loaded GTPase ~1 μM treated with .NO2 ~3 μM, anaerobic, 1 h; read-out: appKD for [3H]GDP (6-TGDP dissociation)
readout type: Kd
Note: state the figure and append the unit.

Quick one: Kd for Nc1nc2c(ncn2[C@@H]2O[C@H](COP(=O)(O)OP(=O)(O)O)[C@@H](O)[C@H]2O)c(=O)[nH]1 [GDP] ?
530 µM

----------
Target: RhoC (Homo sapiens, UniProt P08134)
Sequence (P08134 whole entry): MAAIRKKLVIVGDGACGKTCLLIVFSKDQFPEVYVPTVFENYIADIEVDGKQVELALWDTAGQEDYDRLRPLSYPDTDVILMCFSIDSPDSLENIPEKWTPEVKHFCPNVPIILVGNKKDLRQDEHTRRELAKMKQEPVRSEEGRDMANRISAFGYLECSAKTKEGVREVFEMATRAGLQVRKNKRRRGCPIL
Test: Guanine nucleotide exchange of [3H]GDP-loaded GTPase with 6-TGDP (FIG. 13A)
Type: binding
Design: made in house; host or cells: E. coli
Conditions: calculated by compensation equation from appKD 6-TGDP and trueKD GDP; read-out: trueKD 6-TGDP
Description: FIG. 13. Guanine nucleotide exchange of small GTPases with 6-TGDP. (A) To monitor 6-TGDP-mediated GTPase GDP dissociation, [^3H]GDP-loaded GTPase (1 μM) was incubated with 6-TGDP (0-2000 μM) for 1 h. […] The filters were then washed three times with an assay buffer, and radioactivity was determined using a Beckman-Coulter scintillation counter. The resultant radioactivity (dpm) values associated with GTPase-bound [^3H]GDP were converted into the fraction of mol nucleotide per mol total GTPase. […]
readout type: Kd (µM)
# value in µM; strip the unit string

Return reported Kd; argument: Nc1nc2c(ncn2[C@@H]2O[C@H](COP(=O)(O)OP(=O)(O)O)[C@@H](O)[C@H]2O)c(=S)[nH]1 [6-TGDP, 6-thioguanosine diphosphate]
212

----------
Target: C20S RhoC (Homo sapiens, UniProt P08134, C20S)
Construct: made in house; host or cells: E. coli
Sequence (P08134 whole entry C20S): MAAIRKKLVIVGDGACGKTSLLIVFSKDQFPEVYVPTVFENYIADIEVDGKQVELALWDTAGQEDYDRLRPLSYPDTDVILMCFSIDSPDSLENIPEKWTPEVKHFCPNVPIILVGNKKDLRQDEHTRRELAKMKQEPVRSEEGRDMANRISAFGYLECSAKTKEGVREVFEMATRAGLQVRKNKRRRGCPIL
Assay: Titration of .NO2-treated RhoC-6-TGDP complex with [3H]GDP with/without DTT (FIG. 16D)
Assay type: binding
Settings: absence of DTT; .NO2-treated 6-TGDP C20S RhoC complex; read-out: appKD for [3H]GDP
readout type: Kd (µM)
Entry rule: numbers only, all in µM.

What does the data say about its Kd? Entry: Nc1nc2c(ncn2[C@@H]2O[C@H](COP(=O)(O)OP(=O)(O)O)[C@@H](O)[C@H]2O)c(=O)[nH]1
25.2

----------
Biological target: Rac1 (Homo sapiens, UniProt P63000)
Assay: Guanine nucleotide exchange of [3H]GDP-loaded GTPase with 6-TGDP (FIG. 13A)
Assay type: binding
Design: made in house; host or cells: E. coli
Conditions: calculated by compensation equation from appKD 6-TGDP and trueKD GDP; read-out: trueKD 6-TGDP
readout type: pKd
// returns pKd (minus log10 of molar concentration), number only

Consider the compound Nc1nc2c(ncn2[C@@H]2O[C@H](COP(=O)(O)OP(=O)(O)O)[C@@H](O)[C@H]2O)c(=S)[nH]1 [6-TGDP, 6-thioguanosine diphosphate] and give its measured pKd.
3.80

Source listed as patent US8729047B2.
